# MEASURED ON: GST-HuR (UniProt Q15717 1-326)
# Sequence (Q15717 whole entry): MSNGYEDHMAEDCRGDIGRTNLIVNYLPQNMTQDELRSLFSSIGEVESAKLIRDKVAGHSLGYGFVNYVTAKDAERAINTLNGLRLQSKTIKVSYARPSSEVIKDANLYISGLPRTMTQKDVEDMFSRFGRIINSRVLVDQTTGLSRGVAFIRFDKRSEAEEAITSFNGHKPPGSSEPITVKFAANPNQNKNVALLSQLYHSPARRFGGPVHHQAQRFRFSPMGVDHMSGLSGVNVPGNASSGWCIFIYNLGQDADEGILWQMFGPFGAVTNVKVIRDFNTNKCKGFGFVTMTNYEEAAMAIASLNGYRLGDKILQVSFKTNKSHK
# PROTOCOL: EMSA
ENDPOINT NAME: binding result

* P2-2 (ssRNA) RNA: GGGAGUAUGUAUGGAAUGUUAUGAUAGGACAUAGUAAUAGUGGUCAGAUGUGGAAA | no binding
* GGGAUAUCUGGCUGUCCUUUUUAUAAUGCAAAGUGAGAACUUUCCCUAC (ssRNA) [P1-2] | no binding
* P1-1 (ssRNA) RNA: GGGGAAAAGGGUUUAAACAGUUUGAAAUAUUCUGUCUUCAUUUCUGUAAUAGUUA | binds

Cited source: paper PMC4074165
